Where do the numbers come from? From paper PMC7158045.

- STUDY_TARGET: ZmDRIK1 (DROUGHT RESPONSIVE INACTIVE KINASE 1), kinase domain (Zea mays, UniProt C0P4K9)
- Construct: ZmDRIK1-KD R187-S514 (kinase domain)
- Sequence (C0P4K9 187-514): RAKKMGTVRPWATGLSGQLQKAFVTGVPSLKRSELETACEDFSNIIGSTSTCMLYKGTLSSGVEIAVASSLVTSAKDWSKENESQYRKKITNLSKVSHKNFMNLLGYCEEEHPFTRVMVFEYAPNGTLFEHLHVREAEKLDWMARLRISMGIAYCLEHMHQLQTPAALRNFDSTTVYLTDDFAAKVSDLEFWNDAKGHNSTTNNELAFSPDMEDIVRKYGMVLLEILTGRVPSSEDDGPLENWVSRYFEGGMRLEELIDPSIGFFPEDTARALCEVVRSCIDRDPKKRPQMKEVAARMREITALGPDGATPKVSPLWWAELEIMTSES
- ASSAY_SUMMARY: ITC; cocrystal structure at […] Å; DSF (ΔTm > […] °C)
OBSERVED_PROPERTY: pKd
# pKd is unitless: minus log10 of the molar concentration; print number only

Input: Fill in the blank: the reported pKd of Cc1cc(Nc2cc(N3CCN(C)CC3)nc(/C=C/c3ccccc3)n2)n[nH]1 is ____.
Output: 6.26

* * *

- STUDY_TARGET: ZmDRIK1-R187-P492 (Zea mays, UniProt C0P4K9)
- Construct: kinase domain, R187-P492
- Sequence (C0P4K9 1-514): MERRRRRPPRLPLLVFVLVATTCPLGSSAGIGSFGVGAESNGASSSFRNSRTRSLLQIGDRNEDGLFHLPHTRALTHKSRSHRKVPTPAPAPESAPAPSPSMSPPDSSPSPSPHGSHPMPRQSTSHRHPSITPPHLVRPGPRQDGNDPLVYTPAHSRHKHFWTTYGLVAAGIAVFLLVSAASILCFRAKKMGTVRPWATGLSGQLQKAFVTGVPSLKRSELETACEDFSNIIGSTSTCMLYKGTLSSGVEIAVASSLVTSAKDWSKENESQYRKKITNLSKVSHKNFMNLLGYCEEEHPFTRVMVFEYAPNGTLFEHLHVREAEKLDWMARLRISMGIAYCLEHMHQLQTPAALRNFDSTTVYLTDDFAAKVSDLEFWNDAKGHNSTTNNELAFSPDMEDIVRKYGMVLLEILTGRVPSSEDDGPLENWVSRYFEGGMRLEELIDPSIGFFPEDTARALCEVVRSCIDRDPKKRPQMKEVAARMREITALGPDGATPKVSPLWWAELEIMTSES
- ASSAY_SUMMARY: biochemical
- REPORTED_CONDITIONS: read-out: dTm B, DSF, Boltzmann fit, 0.1% DMSO
OBSERVED_PROPERTY: ΔTm at 10 µM (°C)
Please state the figure in °C; there is no need to write the unit.

Some entries whose results are on file:
# COMPOUND, ΔTm at 10 µM (°C)
records = [
    ("COc1ccc(-c2ccc3c(N4CCOC[C@@H]4C)nc(N4CCOC[C@@H]4C)nc3n2)cc1CO", -0.00437),
    ("CO[C@H]1C[C@@H]2CC[C@@H](C)[C@@](O)(O2)C(=O)C(=O)N2CCCC[C@H]2C(=O)O[C@H]([C@H](C)C[C@@H]2CC[C@@H](OP(C)(C)=O)[C@H](OC)C2)CC(=O)[C@H](C)/C=C(\\C)[C@@H](O)[C@@H](OC)C(=O)[C@H](C)C[C@H](C)/C=C/C=C/C=C/1C", -0.365),
]

Input: Fill in the blank: the reported ΔTm at 10 µM of COC[C@H]1OC(=O)c2coc3c2[C@@]1(C)C1=C(C3=O)[C@@H]2CCC(=O)[C@@]2(C)C[C@H]1OC(C)=O is ____.
Output: -0.289

Input: Fill in the blank: the reported ΔTm at 10 µM of CO[C@H]1C[C@@H]2CC[C@@H](C)[C@@](O)(O2)C(=O)C(=O)N2CCCC[C@H]2C(=O)O[C@H]([C@H](C)C[C@@H]2CC[C@@H](OCCO)[C@H](OC)C2)CC(=O)[C@H](C)/C=C(\C)[C@@H](O)[C@@H](OC)C(=O)[C@H](C)C[C@H](C)/C=C/C=C/C=C/1C [Everolimus (RAD001)] is ____.
Output: -0.526

Input: Fill in the blank: the reported ΔTm at 10 µM of COc1cc(F)c(F)c(Nc2ccc(I)cc2F)c1NS(=O)(=O)C1(C[C@H](O)CO)CC1 [Refametinib (RDEA119)] is ____.
Output: -0.163
